# Measurement Notes: binders from COS7 lysate, DM2A8 probe, primary screen, torsin A project, cell lysate, small-molecule microarray, fluorescence 635/667 (AID 1065)
# Assay Setup: higher = more signal, COS7 lysate expressing mutant human TOR1A
Here, each record is paired with measured composite z-score data.
Just the number, please, no unit attached.

Recorded composite z-score, per entry:
C[C@@H](c1ccccc1)N1C(=O)[C@H]2[C@H]3[C@H](O)[C@H](O)CC(=NNC(=O)OCc4ccccc4)[C@@H]3CC[C@H]2C1=O; 2.62
CCOC(=O)CCN1C(=O)[C@H]2[C@H]3[C@H](O)[C@H](O)CC(=NO[C@@H]4O[C@H](CO)[C@@H](O)[C@H](O)[C@H]4O)[C@H]3CC[C@H]2C1=O; 0.508
COC(=O)C(C(=O)OC)C1CCCC(=O)C1 (stereo not given); 1.45
COc1ccc(COC(=O)NN=C2C[C@@H](O)[C@@H](O)[C@@H]3[C@@H]4C(=O)N(C5CCCCC5)C(=O)[C@@H]4CC[C@@H]23)cc1; -0.132
CC(CCN1CCCCc2nc(C)c(C)cc21)=NOC[C@@H](O)[C@H]1O[C@@H]2OC(C)(C)O[C@@H]2[C@H]1O; 0.454
CC(C)=NO[C@@H](C)c1cn([C@H](CO)Cc2ccccc2)nn1; 0.463
CC(CCN1CCc2nc(-c3ccccc3)c(-c3ccccc3)cc2C1)=NO[C@@H](C)c1cc(-c2c(C)cc(C)cc2C)no1; 0.0468
COC(=O)[C@@H]1CC[C@H](C)[C@@H](c2ccc(C)cc2)N1C(=O)c1ccc(C=NOC[C@H]2O[C@H](c3ccccc3)C=C[C@@H]2Oc2ccc(OC)cc2)cc1; -0.24

Asked: Record request: composite z-score value, item C[C@@H]1CC[C@H]2C(=O)O[C@@H](COc3ccc(C(C)(C)C)cc3)CN2[C@H]1c1ccc(Br)cc1
Given back: 0.0745

Asked: Param item: COc1ccc(O[C@H]2C=C[C@@H](c3ccccc3)O[C@@H]2CO)cc1
Given back: -0.15

Asked: Next: O=C1C=C[C@@H](O)[C@@H]2[C@@H]3C(=O)N(Cc4ccc5c(c4)OCO5)C(=O)[C@@H]3CC[C@@H]12
Given back: -0.0026

Asked: Do the same for O=C1C2=CC[C@H]3C(=O)N(Cc4ccccc4)C(=O)[C@H]3[C@H]2[C@H](O)[C@@H]2O[C@H]12 please
Given back: -0.339

Asked: // query: COCCNC(=O)OCC1CCCC2(CC(OC(=O)NCc3cccc4ccccc34)CC(CCC(=O)N[C@@H](C)C(=O)OC)O2)O1 (stereo not given in full)
Given back: 0.0192

Asked: What do you get for O=C1C=C[C@@H](O)[C@@H]2[C@@H]3C(=O)N(c4cccc(Oc5ccccc5)c4)C(=O)[C@@H]3CC[C@@H]12 ?
Given back: -0.285

Asked: Next up: O=C1[C@H]2[C@H]3[C@H](O)[C@H](O)CC(=NO[C@@H]4O[C@H](CO)[C@@H](O)[C@H](O)[C@H]4O)[C@@H]3CC[C@H]2C(=O)N1C[C@@H]1CCCO1
Given back: -0.038
